Readings of kcat for the listed proteins
Substrate: O=C(O)C(=O)O
assaySummary: purified protein
experimentalParameters: pH 4.2 (optimum), 52 mM sodium acetate, 140 mM NaCl, 37 °C, potassium oxalate 0-150 mM, Mn enzyme

# protein, unitAnnotation, kcat
measured = [
    ("Oxalate decarboxylase (OxDC) (Bacillus subtilis subsp. subtilis str. 168; Y244R) (protein) MKKQNDIPQPIRGDKGATVKIPRNIERDRQNPDMLVPPETDHGTVSNMKFSFSDTHNRLEKGGYAREVTVRELPISENLASVNMRLKPGAIRELHWHKEAEWAYMIYGSARVTIVDEKGRSFIDDVGEGDLWYFPSGLPHSIQALEEGAEFLLVFDDGSFSENSTFQLTDWLAHTPKEVIAANFGVTKEEISNLPGKEKYIFENQLPGSLKDDIVEGPNGEVPYPFTYRLLEQEPIESEGGKVRIADSTNFKVSKTIASALVTVEPGAMRELHWHPNTHEWQYYISGKARMTVFASDGHARTFNYQAGDVGYVPFAMGHYVENIGDEPLVFLEIFKDDHYADVSLNQWLAMLPETFVQAHLDLGKDFTDVLSKEKHPVVKKKCSK", "s⁻¹", 95),
    ("Oxalate decarboxylase (OxDC) (Bacillus subtilis subsp. subtilis str. 168; H279D) (protein) MKKQNDIPQPIRGDKGATVKIPRNIERDRQNPDMLVPPETDHGTVSNMKFSFSDTHNRLEKGGYAREVTVRELPISENLASVNMRLKPGAIRELHWHKEAEWAYMIYGSARVTIVDEKGRSFIDDVGEGDLWYFPSGLPHSIQALEEGAEFLLVFDDGSFSENSTFQLTDWLAHTPKEVIAANFGVTKEEISNLPGKEKYIFENQLPGSLKDDIVEGPNGEVPYPFTYRLLEQEPIESEGGKVYIADSTNFKVSKTIASALVTVEPGAMRELHWHPNTDEWQYYISGKARMTVFASDGHARTFNYQAGDVGYVPFAMGHYVENIGDEPLVFLEIFKDDHYADVSLNQWLAMLPETFVQAHLDLGKDFTDVLSKEKHPVVKKKCSK", "s⁻¹", 58),
]
